target: Bcl-xL, Q07817; assay: peptide SPOT array, c-Myc-tagged receptor at 1 uM or 100 nM, anti-c-Myc-Cy3
Sequence (Q07817 1-209): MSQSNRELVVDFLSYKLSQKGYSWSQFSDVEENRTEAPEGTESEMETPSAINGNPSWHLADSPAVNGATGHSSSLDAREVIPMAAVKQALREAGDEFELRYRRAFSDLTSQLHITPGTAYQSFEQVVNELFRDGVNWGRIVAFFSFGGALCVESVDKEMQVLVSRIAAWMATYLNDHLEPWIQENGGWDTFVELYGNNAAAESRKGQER
endpointName: SPOT signal as a fraction of Bim BH3's signal on the same receptor and array

{"binder": "MDYVGGYALCLDMTARDVQDECKKKG [FAHD1]", "testValue": 0.03}
{"binder": "GTAVAYRGAHLRGRGRAVYNTFRAAP [XXXX]", "testValue": 2.82}
{"binder": "LCQLSCVSKLDRDVCGSLLQSRGMVI [FBXO30]", "testValue": 0.14}
{"binder": "ELLRLRQHWKLRKVGDKILGDLSYRS [MED17]", "testValue": 0.89}
{"binder": "SWFIQSLCAMDKQYADKLEFMHILTR [CASP3]", "testValue": 0.08}
{"binder": "TERIILFGRELQALSEQLGREYGKNL [RANBP10]", "testValue": 0.03}
{"binder": "QRLINLVGESLRLLGNTFVALSDLRC [BAT3]", "testValue": 0.05}
{"binder": "HPKRKQVTELDLRKGANVNEKNKDFM [TNKS]", "testValue": 0.38}
{"binder": "WDEMNVLAHGLLQLGQGLREHAERTR [ANGPTL4]", "testValue": 0.04}
{"binder": "DEHISYVATKVCHLLDQLEGVNTPRQ [EXOC5]", "testValue": 0.02}
{"binder": "VDSIRPKCQEDRHLCDQFSAEIARRR [MCF2L]", "testValue": 0.25}
{"binder": "PDKRLTLSQIDQYVADNFPFYNKSKA [FOXI1]", "testValue": 0.84}
{"binder": "ADVHGIWSRLFCDFLDEFEVLDTTGE [UBA6]", "testValue": 0.06}
{"binder": "LNLLMISVAFLRVIGDQLEKLCDSLL [SLC38A8]", "testValue": 0.05}
{"binder": "ATKRETAATFLKKVAKEFGFQNNGFS [NPLOC4]", "testValue": 0.73}
{"binder": "SFLSAHCASHDAWFGDSLTSLSQRLQ [TMEM214]", "testValue": 0.07}
{"binder": "DSLLWKLAGLLRESGDVVLSGCSTLS [STK11IP]", "testValue": 0.06}

Origin of measurements: paper PMC4072508
